Origin of measurements: the supplement of paper PMC10724198

test system: Saccharomyces cerevisiae; test: protein stability index of tFT-peptide fusion (C-terminal peptide) (PSI (0-1 scale)); higher = more stable (slower turnover); conditions: genetic background: das1 deletion; temperature: 30 C
Each entry gets Not satisfied if its protein stability index stays under 0.7, and Satisfied if its protein stability index is 0.7 or above.

# Polymer Sequence, Label Value
data = [
    ("YSIEVVPHGLIA [GLO1 C-terminal 12 aa]", "Not satisfied"),
    ("SYKDTKRWMFKK [PSF3 C-terminal 12 aa]", "Satisfied"),
]

* * *

system: Saccharomyces cerevisiae; assay: protein stability index of tFT-peptide fusion (C-terminal peptide) (PSI (0-1 scale)); higher = more stable (slower turnover); settings: genetic background: cdc34-1; temperature: 37 C
Experimental Endpoint: protein stability index

# Polymer Sequence, Target Of Assay, Readout Value
measured = [
    ("LSQPGWFKCCLS", "Saccharomyces cerevisiae", 0.653),
    ("YVCVVSVLLGLL", "Saccharomyces cerevisiae", 0.25),
    ("VFRRWGLIGVIV", "Saccharomyces cerevisiae", 0.306),
    ("TFRVRRQKNRNM", "Saccharomyces cerevisiae", 0.628),
    ("GGWRVLHAWVAV", "Saccharomyces cerevisiae", 0.651),
    ("DFWMLLFGIIFA", "Saccharomyces cerevisiae", 0.488),
    ("FECLLFVNLLVI", "Saccharomyces cerevisiae", 0.274),
    ("SPTQIPLWILAS", "Saccharomyces cerevisiae", 0.258),
    ("GVFFHFFFLFCF", "Saccharomyces cerevisiae", 0.332),
    ("SPIGIFCFILCR", "Saccharomyces cerevisiae", 0.0729),
]
